Test system: Macacine alphaherpesvirus 1
Assay: microbe, parasite or virus in culture
Format: functional, organism-based
Conditions: Macacine alphaherpesvirus 1, Vero
In this section we review reported EC50 values for a set of compounds.
Quick note: give the figure in µM, leave out the unit.

Example entries and their recorded answers appear below.
>  <Smiles Text>
Nc1ncnc2c1ncn2[C@@H]1O[C@H](CO)[C@@H](O)[C@@H]1O

>  <EC50 (µM)>
35

$$$$
>  <Smiles Text>
Nc1ccn(C[C@@H](CO)OCP(=O)(O)O)c(=O)n1

>  <EC50 (µM)>
21.6

$$$$
>  <Smiles Text>
O=c1[nH]c(=O)n([C@H]2C[C@H](O)[C@@H](CO)O2)cc1I

>  <EC50 (µM)>
8.5

$$$$
>  <Smiles Text>
O=C(O)P(=O)(O)O

>  <EC50 (µM)>
250

$$$$
>  <Smiles Text>
Nc1nc(O)c2ncn(CCC(CO)CO)c2n1

>  <EC50 (µM)>
25.3

$$$$

Okay, next one:
Value wanted: EC50 (Macacine alphaherpesvirus 1) of entry CCc1cn([C@H]2C[C@H](O)[C@@H](CO)O2)c(=O)[nH]c1=O
48
